Test system: HepG2 human hepatocellular carcinoma cells
Protocol Details: anti-proliferation, SRB colorimetric assay, HepG2
Assay type: cell-based
Condition Label: concentration required for 50% growth inhibition, read-out: IC50 (μM, mean ± S.D.)
Metric: IC50 (µM)
Report only the number, with the unit µM understood.

Fill in: IC50 of Cc1[nH]c(/C=C2\C(=O)Nc3cc(NC(=O)NC(=O)c4ccc(F)cc4F)ccc32)c(C)c1CCC(=O)O [D56] is ___
0.13

Fill in: IC50 of O=C1Nc2cc(NC(=O)c3c[nH]cc(-c4ccc(C(F)(F)F)cc4)c3=O)ccc2/C1=C/c1ccc[nH]1 [D133] is ___
0.73

---
Fill in: IC50 of O=C(NC(=O)c1ccc(Cl)cc1)Nc1ccc2c(c1)NC(=O)/C2=C\c1ccc[nH]1 [D25] is ___
0.94

Fill in: IC50 of Cc1[nH]c(/C=C2\C(=O)Nc3cc(NC(=O)NC(=O)c4ccc(Cl)c(C(F)(F)F)c4)ccc32)c(C)c1CCC(=O)O [D37] is ___
0.09

---

Assay System: aurora B (Homo sapiens)
Sequence (Q96GD4 whole entry): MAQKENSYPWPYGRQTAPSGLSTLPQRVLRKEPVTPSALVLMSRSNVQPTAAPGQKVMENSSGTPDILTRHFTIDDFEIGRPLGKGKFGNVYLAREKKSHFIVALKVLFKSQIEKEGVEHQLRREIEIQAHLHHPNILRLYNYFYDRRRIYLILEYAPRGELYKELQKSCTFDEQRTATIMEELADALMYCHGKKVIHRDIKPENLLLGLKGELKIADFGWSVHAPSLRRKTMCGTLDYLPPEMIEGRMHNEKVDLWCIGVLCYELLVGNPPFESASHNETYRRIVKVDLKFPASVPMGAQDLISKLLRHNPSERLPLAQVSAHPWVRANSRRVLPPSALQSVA
Protocol Details: radioisotope-based P81 filter-binding assay, aurora B kinase
Format: biochemical
Condition Label: averaged from two independent dose-response curves; read-out: Enzyme assay IC50 Aur B
Metric: pIC50
Units for pIC50: none; it is -log10 of a concentration expressed in mol/L.

These solved cases illustrate the format of a correct answer.
Fill in: pIC50 of COc1cc(F)c(C(=O)NC(=O)Nc2cc3c(cc2F)/C(=C/c2[nH]c(C)c(C(=O)O)c2C)C(=O)N3)c(F)c1 [D61] is ___
8.68

Fill in: pIC50 of COc1ccc(C(=O)NC(=O)Nc2cc3c(cc2F)/C(=C/c2[nH]c(C)c(CC(=O)O)c2C)C(=O)N3)cc1 [D50] is ___
9.00

---
Fill in: pIC50 of Cc1[nH]c(/C=C2\C(=O)Nc3cc(NC(=O)NC(=O)c4ccccc4)ccc32)c(C)c1C(=O)O [D32] is ___
8.68

Fill in: pIC50 of O=C1Nc2cc(NC(=O)N3CCN(c4ccc(C(F)(F)F)cc4)C3=O)ccc2/C1=C/c1ccc[nH]1 [D88] is ___
6.08

Fill in: pIC50 of O=C1Nc2cc(NC(=O)N3CCN(c4ccc(Cl)c(Cl)c4)C3=O)ccc2/C1=C/c1ccc[nH]1 [D86] is ___
6.84

Fill in: pIC50 of O=C1Nc2cc(NC(=O)c3c[nH]cc(-c4ccc(F)cc4)c3=O)c(F)cc2/C1=C/c1ccc[nH]1 [D137] is ___
6.63

Fill in: pIC50 of Cc1[nH]c(/C=C2\C(=O)Nc3cc(NC(=O)c4c[nH]cc(-c5ccc(F)cc5)c4=O)ccc32)c(C)c1C(=O)O [D141] is ___
8.46

---

# reported IC50; entries follow
Assay System: UniProtKB Q96GD4
Protocol Details: radioisotope-based P81 filter-binding assay, aurora B kinase
Assay type: biochemical
Condition Label: averaged from two independent dose-response curves; read-out: Enzyme assay IC50 Aur B
Form entry: enter the amount, then its unit.

These solved cases illustrate the format of a correct answer.
Fill in: IC50 of O=C1Nc2cc(NC(=O)N3CCN(c4ccccc4F)C3=O)ccc2/C1=C/c1ccc[nH]1 is ___
1.8 nM

Fill in: IC50 of COc1ccc(-c2c[nH]cc(C(=O)Nc3ccc4c(c3)NC(=O)/C4=C\c3[nH]c(C)c(C(=O)N4CCOCC4)c3C)c2=O)cc1 is ___
42.8 nM

Fill in: IC50 of Cc1ccc(N2CCN(C(=O)Nc3ccc4c(c3)NC(=O)/C4=C\c3ccc[nH]3)C2=O)cc1 is ___
19.3 nM

Fill in: IC50 of Cc1[nH]c(/C=C2\C(=O)Nc3cc(NC(=O)c4c[nH]cc(-c5ccc(F)cc5)c4=O)ccc32)c(C)c1CC(=O)O is ___
2.3 nM

---
Fill in: IC50 of O=C1Nc2cc(NC(=O)c3c[nH]cc(-c4ccc(F)cc4F)c3=O)ccc2/C1=C/c1ccc[nH]1 is ___
64.5 nM

Fill in: IC50 of Cc1[nH]c(/C=C2\C(=O)Nc3cc(NC(=O)c4c[nH]cc(-c5ccc(F)cc5)c4=O)ccc32)c(C)c1C(=O)N1CCN(C)CC1 is ___
70.5 nM

Fill in: IC50 of Cc1[nH]c(/C=C2\C(=O)Nc3cc(NC(=O)NC(=O)c4ccc(Cl)c(C(F)(F)F)c4)ccc32)c(C)c1CCC(=O)O is ___
1.6 nM

---

Assay System: aurora B (Homo sapiens)
Protocol Details: radioisotope-based P81 filter-binding assay, aurora B kinase
Format: biochemical
Condition Label: averaged from two independent dose-response curves; read-out: Enzyme assay IC50 Aur B
Metric: pIC50
Units for pIC50: none; it is -log10 of a concentration expressed in mol/L.

Find the measured pIC50: item O=C(NC(=O)c1ccc(C(F)(F)F)cc1)Nc1ccc2c(c1)NC(=O)/C2=C\c1ccc[nH]1 , target or system aurora B (Homo sapiens).
7.39

Find the measured pIC50: item Cc1c[nH]cc(C(=O)Nc2ccc3c(c2)NC(=O)/C3=C\c2ccc[nH]2)c1=O , target or system aurora B (Homo sapiens).
7.53

Find the measured pIC50: item O=C(NC(=O)c1ccc(Cl)c(Cl)c1)Nc1ccc2c(c1)NC(=O)/C2=C\c1ccc[nH]1 , target or system aurora B (Homo sapiens).
8.11

---
Find the measured pIC50: item COc1ccc(C(=O)NC(=O)Nc2ccc3c(c2)NC(=O)/C3=C\c2cccs2)cc1 , target or system aurora B (Homo sapiens).
7.67

Find the measured pIC50: item COc1ccc(-c2c[nH]cc(C(=O)Nc3ccc4c(c3)NC(=O)/C4=C\c3[nH]c(C)c(C(=O)O)c3C)c2=O)cc1 , target or system aurora B (Homo sapiens).
8.35

Find the measured pIC50: item COc1ccc(C(=O)NC(=O)Nc2ccc3c(c2)NC(=O)/C3=C\c2[nH]c(C)c(C(=O)O)c2C)cc1 , target or system aurora B (Homo sapiens).
8.72

---

Assay System: UniProtKB Q96GD4
Protocol Details: radioisotope-based P81 filter-binding assay, aurora B kinase
Format: biochemical
Condition Label: compound at 1.0 μM; mean values (n=2); read-out: percent inhibition of enzyme catalytic activity, Aur B (numbers in parentheses)
Method: Compounds of formula (I)-(IV) were evaluated for abilities in inhibiting protein kinases aurora B and FLT-3 activity using radioisotope-based P81 filter-binding assay (Table 1).
Hi, to clarify the labels: label 1 covers inhibition at 1 µM from 10% upward, label 0 covers anything below 10%.

Worked set:
Does the reported inhibition at 1 µM for COc1ccc(C(=O)NC(=O)Nc2ccc3c(c2)NC(=O)C3=Cc2ccco2)cc1 (stereo in doubt) fall at or above the 10% mark?
label 1

Does the reported inhibition at 1 µM for COc1ccc(/C=C2/C(=O)Nc3cc(NC(=O)NC(=O)c4ccc(OC)cc4)ccc32)cc1 fall at or above the 10% mark?
label 1

Does the reported inhibition at 1 µM for COc1ccc(C(=O)NC(=O)Nc2ccc3c(c2)NC(=O)/C3=C/c2ccc(Cl)cc2)cc1 fall at or above the 10% mark?
label 1

Does the reported inhibition at 1 µM for COc1ccc(N2CCN(C(=O)Nc3ccc4c(c3)NC(=O)/C4=C\c3ccc[nH]3)C2=O)cc1 fall at or above the 10% mark?
label 1

Does the reported inhibition at 1 µM for COc1ccc(C(=O)NC(=O)Nc2ccc3c(c2)NC(=O)/C3=C\c2[nH]c(C)c(-c3ccccc3)c2C)cc1 fall at or above the 10% mark?
label 1

---
Does the reported inhibition at 1 µM for COc1ccc(C(=O)NC(=O)Nc2ccc3c(c2)/C(=C/c2ccc[nH]2)C(=O)N3)cc1 fall at or above the 10% mark?
label 1

Does the reported inhibition at 1 µM for COc1ccc(C(=O)NC(=O)Nc2ccc3c(c2)NC(=O)/C3=C/c2ccccc2)cc1 fall at or above the 10% mark?
label 1

Does the reported inhibition at 1 µM for COc1ccc(C(=O)NC(=O)Nc2ccc3c(c2)NC(=O)/C3=C\c2ccccn2)cc1 fall at or above the 10% mark?
label 1

---

# reported IC50; entries follow
Tested on: A549 human lung carcinoma cells
Protocol Details: anti-proliferation, SRB colorimetric assay, A549
Type: cell-based
Condition Label: concentration required for 50% growth inhibition, read-out: IC50 (μM, mean ± S.D.)
Report only the number, with the unit µM understood.

Fill in: IC50 of COc1ccc(C(=O)NC(=O)Nc2ccc3c(c2)NC(=O)/C3=C\c2[nH]c(C)c(C(=O)O)c2C)cc1 is ___
0.48

---
Fill in: IC50 of O=C1Nc2cc(NC(=O)c3c[nH]cc(-c4cccc(Cl)c4)c3=O)ccc2/C1=C/c1ccc[nH]1 is ___
0.5

Fill in: IC50 of Cc1[nH]c(/C=C2\C(=O)Nc3cc(NC(=O)NC(=O)c4ccccc4F)ccc32)c(C)c1C(=O)O is ___
0.63

Fill in: IC50 of Cc1ccc(C(=O)NC(=O)Nc2ccc3c(c2)NC(=O)/C3=C\c2[nH]c(C)c(C(=O)O)c2C)cc1 is ___
0.77

Fill in: IC50 of O=C1Nc2cc(NC(=O)c3c[nH]cc(-c4ccc(F)cc4)c3=O)ccc2/C1=C/c1ccc[nH]1 is ___
0.45

Fill in: IC50 of COc1ccc(C(=O)NC(=O)Nc2ccc3c(c2)/C(=C/c2ccc[nH]2)C(=O)N3)cc1 is ___
0.73
